System: Jurkat cells
assay_name: Tacrolimus dose response of FKBP13-AcGFP-mCherry constructs stably transduced into Jurkat cells, GFP MFI by flow cytometry
Type: cell-based
conditions: tacrolimus; FIG. 38
quantity_measured: FC

1) FKBP-288: FKBP13 DRD-AcGFP construct of Table 10 (protein, Description of sequence: Construct Name: FKBP-288; Mutation(s): Q72R Q84E A117W V85R K120I) HCPIKSRKGDVLHMHYTGKLEDGTEFDSSLPRNQPFVFSLGTGERIKGWDQGLLGMCEGEKRKLVIPSELGYGERGWPPIIPGGATLVFEVELLKIER    30.10

Query (molecule): FKBP-251: combinatorial FKBP13 mutant construct of Table 10 (protein, Description of sequence: Construct Name: FKBP-251; Mutation(s): Q72R Q84E A117W V85R DRD E130F) HCPIKSRKGDVLHMHYTGKLEDGTEFDSSLPRNQPFVFSLGTGERIKGWDQGLLGMCEGEKRKLVIPSELGYGERGWPPKIPGGATLVFFVELLKIER ; field requested: FC
92.03

# credit: patent US20250186614A1
